Measured Activity by item
- Tested on: RAW264.7
- experiment-summary: Effect on inflammatory mediators in LPS-stimulated mouse RAW264.7 cells assessed as 5-LO accumulation at 20 uM after 24 hrs by dot immunoblotting
- Assay type: functional
Give your result as the value with the unit written after it.

The following molecules have reported results that may help.
COc1ccc(-c2cc(-c3ccc4c(c3)CCCC4)nc(Cl)c2C#N)cc1OC | 84.5%
CC(C)c1ccc(-c2cc(-c3ccc4c(c3)CCCC4)nc(NCc3ccccc3)c2C#N)cc1 | 88.7%
COc1ccc(-c2cc(-c3ccc4c(c3)CCCC4)nc(OCC(=O)NN)c2C#N)cc1OC | 83.2%
COc1ccc(-c2cc(-c3ccc4c(c3)CCCC4)[nH]c(=O)c2C#N)cc1OC | 92.1%
N#Cc1c(-c2c[nH]c3ccccc23)cc(-c2ccc3c(c2)CCCC3)[nH]c1=S | 69.4%

Tell us which Activity value is on record for CC(C)c1ccc(-c2cc(-c3ccc4c(c3)CCCC4)[nH]c(=O)c2C#N)cc1 25.1%

====

- Test system: RAW264.7
- experiment-summary: Effect on inflammatory mediators in mouse RAW264.7 cells assessed as nitrite accumulation at 20 uM after 24 hrs by Griess assay
- Format: functional
Listed next: entries and their corresponding log10(Activity).
Hi team, quick reminder: these entries are log10 of Activity (nmol).

Please review the following examples before continuing.
CC(C)c1ccc(-c2cc(-c3ccc4c(c3)CCCC4)[nH]c(=S)c2C#N)cc1 | 1.10
COc1ccc(-c2cc(-c3ccc4c(c3)CCCC4)nc(OCC(=O)NN)c2C#N)cc1OC | 0.13
N#Cc1c(-c2c[nH]c3ccccc23)cc(-c2ccc3c(c2)CCCC3)[nH]c1=S | 1.19

Please give measured log10(Activity) of the following entry: CC(C)c1ccc(-c2cc(-c3ccc4c(c3)CCCC4)nc3[nH]nc(N)c23)cc1 0.75

Please look at this molecule and report its log10(Activity): COc1ccc(-c2cc(-c3ccc4c(c3)CCCC4)nc(OCC(=O)NCc3ccccc3)c2C#N)cc1OC 1.43

Find the measured log10(Activity) of CC(C)c1ccc(-c2cc(-c3ccc4c(c3)CCCC4)nc(NCc3ccccc3)c2C#N)cc1 and report it. 2.79

Quick one: give measured log10(Activity) for CC(C)c1ccc(-c2cc(-c3ccc4c(c3)CCCC4)[nH]c(=O)c2C#N)cc1 0.93

====

- System: RAW264.7
- experiment-summary: Effect on inflammatory mediators in LPS-stimulated mouse RAW264.7 cells assessed as TNF-alpha accumulation at 20 uM after 24 hrs by ELISA
- Format: functional
Listed below: Activity values for each entry.
// units = pg; emit number, no label

N#Cc1c(-c2c[nH]c3ccccc23)cc(-c2ccc3c(c2)CCCC3)[nH]c1=S | 4925.35
COc1ccc(-c2cc(-c3ccc4c(c3)CCCC4)nc(OCC(=O)NN)c2C#N)cc1OC | 4924.22

// Input: N#Cc1c(-c2c[nH]c3ccccc23)cc(-c2ccc3c(c2)CCCC3)[nH]c1=O . Output its Activity only. 5100.15

====

- Test system: RAW264.7
- experiment-summary: Effect on inflammatory mediators in mouse RAW264.7 cells assessed as nitrite accumulation at 20 uM after 24 hrs by Griess assay
- Format: functional
endpoint-label: Activity (nmol)
Note: unit nmol is implicit; provide only the numeric part.

Sample records with Activity:
COc1ccc(-c2cc(-c3ccc4c(c3)CCCC4)nc(Cl)c2C#N)cc1OC | 512.35
N#Cc1c(-c2c[nH]c3ccccc23)cc(-c2ccc3c(c2)CCCC3)[nH]c1=O | 16.25
COc1ccc(-c2cc(-c3ccc4c(c3)CCCC4)nc3[nH]nc(N)c23)cc1OC | 10.53

Now for another entry.
Supply Activity measured with RAW264.7 for COc1ccc(-c2cc(-c3ccc4c(c3)CCCC4)[nH]c(=O)c2C#N)cc1OC . 14.8
